# Target: UniProtKB P09874
# Sequence (P09874 whole entry): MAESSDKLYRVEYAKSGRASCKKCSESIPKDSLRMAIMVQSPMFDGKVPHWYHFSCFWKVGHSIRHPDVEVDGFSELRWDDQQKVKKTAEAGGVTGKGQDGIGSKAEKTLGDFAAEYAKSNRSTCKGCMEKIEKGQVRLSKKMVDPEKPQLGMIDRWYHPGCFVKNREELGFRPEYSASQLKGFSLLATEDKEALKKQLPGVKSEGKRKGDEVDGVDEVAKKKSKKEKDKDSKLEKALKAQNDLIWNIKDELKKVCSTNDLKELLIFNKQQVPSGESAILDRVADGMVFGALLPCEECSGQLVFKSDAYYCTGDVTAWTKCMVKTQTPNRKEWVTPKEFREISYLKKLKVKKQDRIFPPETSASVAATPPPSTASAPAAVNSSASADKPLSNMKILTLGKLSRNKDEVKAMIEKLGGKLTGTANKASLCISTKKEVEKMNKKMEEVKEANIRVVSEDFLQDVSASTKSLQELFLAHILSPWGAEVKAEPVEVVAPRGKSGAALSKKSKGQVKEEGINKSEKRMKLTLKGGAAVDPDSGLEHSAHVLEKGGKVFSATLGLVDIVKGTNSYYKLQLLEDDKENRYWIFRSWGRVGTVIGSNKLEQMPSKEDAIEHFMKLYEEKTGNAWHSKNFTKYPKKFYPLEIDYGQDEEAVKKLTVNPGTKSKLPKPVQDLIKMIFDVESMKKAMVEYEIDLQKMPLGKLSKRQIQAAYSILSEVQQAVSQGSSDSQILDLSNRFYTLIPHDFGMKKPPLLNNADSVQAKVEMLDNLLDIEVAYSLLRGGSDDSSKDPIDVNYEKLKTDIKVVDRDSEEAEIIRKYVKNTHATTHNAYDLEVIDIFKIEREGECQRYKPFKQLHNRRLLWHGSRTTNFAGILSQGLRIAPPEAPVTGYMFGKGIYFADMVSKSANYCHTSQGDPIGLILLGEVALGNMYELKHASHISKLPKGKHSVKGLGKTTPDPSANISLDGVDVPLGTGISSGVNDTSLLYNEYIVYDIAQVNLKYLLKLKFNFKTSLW
# Test protocol: PARP1 probe displacement HTRF assay
# Condition summary: read-out: PARP1 HTRF; binned Kd, PARP1 probe displacement HTRF
Property: Kd

Request: Quick check: Kd of N#Cc1ccc(N2CCC(N3CCC(c4nc5ccccc5c(=O)[nH]4)C3)CC2)cn1 (single isomer, unassigned) [Compound 69a] ?
Result: 10 to 100 nM

Request: Now the compound CNC(=O)c1ccc(N2CC(N3CCCC(c4nc5ccccc5c(=O)[nH]4)CC3)C2)cn1 (single isomer, unassigned) [Compound 145a]
Result: < 10 nM

Request: Now the compound CNC(=O)c1ccc(OCCN2CCC(c3nc4ccccc4c(=O)[nH]3)C2)cn1 (single isomer, unassigned) [Compound 62a]
Result: 10 to 100 nM

Request: Now the compound CNC(=O)c1ccc(OCCN2CCC(c3nc4ccccc4c(=O)[nH]3)C2)cn1 (single isomer, unassigned) [Compound 62b]
Result: 100 to 1000 nM

Request: Now the compound CNC(=O)c1ccc(N2CC(N3CCCC(c4nc5ccccc5c(=O)[nH]4)CC3)C2)cn1 (single isomer, unassigned) [Compound 145b]
Result: < 10 nM

Request: Now the compound CNC(=O)c1ccc(N2CCC(N3CCC(c4nc5cccc(C(F)(F)F)c5c(=O)[nH]4)C3)CC2)cn1 (single isomer, unassigned) [Compound 86b]
Result: < 10 nM

Request: Now the compound CNC(=O)c1ccc(N2CCC(N3CCCC(Cc4nc5ccccc5c(=O)[nH]4)C3)CC2)cn1 (single isomer, unassigned) [Compound 57b]
Result: 100 to 1000 nM

Request: Now the compound CCNC(=O)c1ccc(N2CCC(N3CCCC(c4nc5ccccc5c(=O)[nH]4)C3)CC2)cn1 (single isomer, unassigned) [Compound 122b]
Result: 100 to 1000 nM

Request: Now the compound CNC(=O)c1cc(C)c(N2CCC(N3CCC(c4cc5ccccc5c(=O)[nH]4)C3)CC2)c(C)n1 (single isomer, unassigned) [Compound 205a]
Result: 100 to 1000 nM

Request: Now the compound CNC(=O)c1ccc(N2CCC(N3CCCC(c4nc5ccccc5c(=O)[nH]4)C3)CC2)c(C(F)F)n1 (racemic) [Compound 156rac]
Result: 10 to 100 nM

Request: Now the compound CNC(=O)c1ccc(N2CCC(N3CCC(c4ncc(C(F)(F)F)c(=O)[nH]4)C3)CC2)cn1 (single isomer, unassigned) [Compound 56a]
Result: 10 to 100 nM

Request: Now the compound CNC(=O)c1ccc(N2CCC(N3CCC(c4nc5ccccc5c(=O)[nH]4)C3)CC2)cn1 (single isomer, unassigned) [Compound 10b]
Result: < 10 nM

Request: Now the compound CNC(=O)c1ccc(N2CCC(N3CCCC(C)(c4nc5ccccc5c(=O)[nH]4)C3)CC2)cn1 (single isomer, unassigned) [Compound 66a]
Result: 1000 to 10000 nM

Request: Now the compound CNC(=O)c1ccc(N2CCC(N3CCC(c4nc5cccc(F)c5c(=O)[nH]4)C3)CC2)cn1 (single isomer, unassigned) [Compound 101b]
Result: < 10 nM
